# credit: paper PMC10669656

- Measurement Protocol: Solubility in neat solvents, shake-flask with spectrophotometric determination
- Assay type: physicochemical
- Recorded Conditions: 25 °C, organic solvent or mixture, thermodynamic from solid; neat acetone, 298.1 K
Kindly supply the reported solubility at 24 h values for the records listed here.
Include the unit after the number when you answer.

INPUT: Bench note: what solubility at 24 h did O=C1Nc2ccc([N+](=O)[O-])cc2C1=NNC(=O)c1ccccc1C(F)(F)F [derivative 1] show?
OUTPUT: 4390 µg/mL

INPUT: Give its solubility at 24 h value. Item: O=C1Nc2ccc([N+](=O)[O-])cc2C1=NNC(=O)c1cccc([N+](=O)[O-])c1 [derivative 3]
OUTPUT: 210 µg/mL

INPUT: Need solubility at 24 h of Nc1cccc(C(=O)NN=C2C(=O)Nc3ccc([N+](=O)[O-])cc32)c1 [derivative 2] , thanks.
OUTPUT: 900 µg/mL

====

- Measurement Protocol: Solubility in NMP-water binary mixtures
- Assay type: physicochemical
- Recorded Conditions: NMP-water binary mixture, x*NMP 0.3, 25 °C, aqueous with cosolvent or surfactant or cyclodextrin, thermodynamic from solid, x*NMP 0.3, 298.1 K
Consider the following compounds; for each one, report its solubility at 24 h.
Kindly provide the numeric value in mg/mL only, without the unit symbol.

INPUT: Consider the compound Nc1cccc(C(=O)NN=C2C(=O)Nc3ccc([N+](=O)[O-])cc32)c1 [derivative 2] and give its measured solubility at 24 h.
OUTPUT: 18.2

INPUT: Name the reported solubility at 24 h value associated with the compound O=C1Nc2ccc([N+](=O)[O-])cc2C1=NNC(=O)c1cccc([N+](=O)[O-])c1 [derivative 3]
OUTPUT: 4.94

INPUT: Any idea what its solubility at 24 h is? The compound is O=C1Nc2ccc([N+](=O)[O-])cc2C1=NNC(=O)c1ccccc1C(F)(F)F [derivative 1]
OUTPUT: 161

====

- Measurement Protocol: Solubility in neat solvents, shake-flask with spectrophotometric determination
- Assay type: physicochemical
- Recorded Conditions: 25 °C, organic solvent or mixture, thermodynamic from solid; neat dioxane, 298.1 K
Would you mind telling me the reported solubility at 24 h of each entry?
The answer is to be given in µg/mL; state only the numeric part.

INPUT: Name the recorded solubility at 24 h for `O=C1Nc2ccc([N+](=O)[O-])cc2C1=NNC(=O)c1cccc([N+](=O)[O-])c1` .
OUTPUT: 310

INPUT: // solubility at 24 h lookup, key: `Nc1cccc(C(=O)NN=C2C(=O)Nc3ccc([N+](=O)[O-])cc32)c1`
OUTPUT: 960

INPUT: Would you mind telling me what solubility at 24 h value was observed for `O=C1Nc2ccc([N+](=O)[O-])cc2C1=NNC(=O)c1ccccc1C(F)(F)F` ?
OUTPUT: 4170

====

Answer each item with its documented solubility at 24 h.
- Measurement Protocol: Solubility in neat solvents, shake-flask with spectrophotometric determination
- Type: physicochemical
- Recorded Conditions: neat 1-propanol, 25 °C, organic solvent or mixture, thermodynamic from solid
Field: numeric (mg/mL). Do not append units.

INPUT: For `Nc1cccc(C(=O)NN=C2C(=O)Nc3ccc([N+](=O)[O-])cc32)c1` , what is its reported solubility at 24 h?
OUTPUT: 0.1

INPUT: Param item = `O=C1Nc2ccc([N+](=O)[O-])cc2C1=NNC(=O)c1ccccc1C(F)(F)F` ; retrieve measured solubility at 24 h.
OUTPUT: 0.61

INPUT: Give its solubility at 24 h value. Item: `O=C1Nc2ccc([N+](=O)[O-])cc2C1=NNC(=O)c1cccc([N+](=O)[O-])c1`
OUTPUT: 0.02

====

- Measurement Protocol: Solubility in DMSO-water binary mixtures
- Type: physicochemical
- Recorded Conditions: DMSO-water binary mixture, 25 °C, aqueous with cosolvent or surfactant or cyclodextrin, thermodynamic from solid, x*DMSO 0.7, 298.1 K
Measured Endpoint: solubility at 24 h
Report field: quantity (unit follows the number).

INPUT: Which value of solubility at 24 h has been reported for `Nc1cccc(C(=O)NN=C2C(=O)Nc3ccc([N+](=O)[O-])cc32)c1` in the records?
OUTPUT: 24.1 mg/mL

INPUT: So what's the measured solubility at 24 h for this one? `O=C1Nc2ccc([N+](=O)[O-])cc2C1=NNC(=O)c1ccccc1C(F)(F)F`
OUTPUT: 356 mg/mL

INPUT: Give its solubility at 24 h value. Item: `O=C1Nc2ccc([N+](=O)[O-])cc2C1=NNC(=O)c1cccc([N+](=O)[O-])c1`
OUTPUT: 4.01 mg/mL

====

- Measurement Protocol: Solubility in neat solvents, shake-flask with spectrophotometric determination
- Assay type: physicochemical
- Recorded Conditions: 25 °C, organic solvent or mixture, thermodynamic from solid; neat DMSO, 298.1 K
Measured Endpoint: solubility at 24 h (mg/mL)
Dear colleague, please return just the value in mg/mL, with no unit written.

INPUT: // solubility at 24 h lookup, key: `O=C1Nc2ccc([N+](=O)[O-])cc2C1=NNC(=O)c1cccc([N+](=O)[O-])c1`
OUTPUT: 3.09

INPUT: Using the record for `Nc1cccc(C(=O)NN=C2C(=O)Nc3ccc([N+](=O)[O-])cc32)c1` , report its solubility at 24 h.
OUTPUT: 21.4

INPUT: So what's the measured solubility at 24 h for this one? `O=C1Nc2ccc([N+](=O)[O-])cc2C1=NNC(=O)c1ccccc1C(F)(F)F`
OUTPUT: 327

====

Would you kindly list solubility at 24 h for each of these molecules?
- Measurement Protocol: Solubility in neat solvents, shake-flask with spectrophotometric determination
- Format: physicochemical
- Recorded Conditions: 25 °C, organic solvent or mixture, thermodynamic from solid; neat DMF, 298.1 K
Record the value in mg/mL, omitting the unit from your answer.

INPUT: Any idea what solubility at 24 h was measured for `O=C1Nc2ccc([N+](=O)[O-])cc2C1=NNC(=O)c1cccc([N+](=O)[O-])c1` ?
OUTPUT: 1.69

INPUT: Requested field: solubility at 24 h. Item: `Nc1cccc(C(=O)NN=C2C(=O)Nc3ccc([N+](=O)[O-])cc32)c1`
OUTPUT: 15.3

INPUT: If you can, please state the reported solubility at 24 h value of `O=C1Nc2ccc([N+](=O)[O-])cc2C1=NNC(=O)c1ccccc1C(F)(F)F` .
OUTPUT: 119

====

- Measurement Protocol: Solubility in DMSO-water binary mixtures
- Format: physicochemical
- Recorded Conditions: DMSO-water binary mixture, 25 °C, aqueous with cosolvent or surfactant or cyclodextrin, thermodynamic from solid, x*DMSO 0.8, 298.1 K
- Experimental: The calibration curves for each derivative were obtained using successful dilutions of initial stock solutions followed by spectrophotometric measurements of the obtained solutions with decreasing concentration. […] A multi-step procedure was employed in order to find the solubility of the studied derivatives in the selected solvents. […] The samples diluted with methanol were measured spectrophotometrically using the same instrument as was used in the case of calibration curves. […]
Would you mind telling me the reported solubility at 24 h of each entry?
Please reply with the bare figure in mg/mL and do not write the unit itself.

INPUT: Consider the molecule shown here: `Nc1cccc(C(=O)NN=C2C(=O)Nc3ccc([N+](=O)[O-])cc32)c1` What is its recorded solubility at 24 h?
OUTPUT: 25.4

INPUT: Quick check: solubility at 24 h of `O=C1Nc2ccc([N+](=O)[O-])cc2C1=NNC(=O)c1ccccc1C(F)(F)F` ?
OUTPUT: 363

INPUT: Which solubility at 24 h is reported for this molecule? `O=C1Nc2ccc([N+](=O)[O-])cc2C1=NNC(=O)c1cccc([N+](=O)[O-])c1`
OUTPUT: 3.85

====

- Measurement Protocol: Solubility in NMP-water binary mixtures
- Assay type: physicochemical
- Recorded Conditions: NMP-water binary solvent, 25 °C, aqueous with cosolvent or surfactant or cyclodextrin, thermodynamic from solid, x*NMP 0.5, 298.1 K
Measured Endpoint: solubility at 24 h (mg/mL)
Only the number, expressed in mg/mL, is required.

INPUT: Requested field: solubility at 24 h. Item: `O=C1Nc2ccc([N+](=O)[O-])cc2C1=NNC(=O)c1ccccc1C(F)(F)F`
OUTPUT: 248

INPUT: Value lookup for solubility at 24 h; key = `Nc1cccc(C(=O)NN=C2C(=O)Nc3ccc([N+](=O)[O-])cc32)c1`
OUTPUT: 29.5

INPUT: // returns reported solubility at 24 h for input `O=C1Nc2ccc([N+](=O)[O-])cc2C1=NNC(=O)c1cccc([N+](=O)[O-])c1`
OUTPUT: 7.72

====

- Measurement Protocol: Solubility in DMSO-water binary mixtures
- Assay type: physicochemical
- Recorded Conditions: DMSO-water binary mixture, 25 °C, aqueous with cosolvent or surfactant or cyclodextrin, thermodynamic from solid, x*DMSO 0.5, 298.1 K
Measured Endpoint: solubility at 24 h (mg/mL)
The response must be a number in mg/mL with no trailing unit.

INPUT: Entry `Nc1cccc(C(=O)NN=C2C(=O)Nc3ccc([N+](=O)[O-])cc32)c1` : reported solubility at 24 h = ?
OUTPUT: 18.4

INPUT: Need solubility at 24 h, item `O=C1Nc2ccc([N+](=O)[O-])cc2C1=NNC(=O)c1ccccc1C(F)(F)F`
OUTPUT: 305

INPUT: Which measured solubility at 24 h value corresponds to `O=C1Nc2ccc([N+](=O)[O-])cc2C1=NNC(=O)c1cccc([N+](=O)[O-])c1` ?
OUTPUT: 3.75
